B1: FAM46D (parent)
chain: LELKFVSSLRRQFEFSVDSFQIVL

Variants of: B1
Experiment: protein stability index of a GFP-peptide fusion (GPS, HEK-293T) (PSI 1-6); higher = more stable;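 note: lentivirally expressed fusions sorted by FACS into six bins by GFP to DsRed ratio, PSI derived from sequencing read proportions per bin multiplied by bin number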
Details: c terminus: a fixed tail appended
ASSAY READOUT: protein stability index
Number only, please.

query: Recorded protein stability index for `F15R` , please?
result: 2.68

query: And the next one, `I22S` ?
result: 2.36

query: Another variant to check: `S19V`
result: 2.12

query: Also need `D18H` , thanks.
result: 4.76

query: Field entry: `L3T`
result: 3.15

query: Would you kindly repeat that for `L24V` ?
result: 1.77

query: Thanks! And `L3F` ?
result: 2.43

query: Can you handle `L1A` next?
result: 2.03

query: Now give it for `E14T` too.
result: 4.77

query: Same question, `F5G` this time
result: 2.6

query: Quick one: `R11D`
result: 1.97

query: Also, `L9T` please.
result: 2.99

query: Consider next the variant `S16H` in the same way.
result: 2.69

query: Follow-up entry: `S8N`
result: 2.92

query: Queued: `R11I`
result: 2.54

query: Now consider `L1N` and answer again.
result: 2.9

query: Try `S7P` next.
result: 2.67

query: Next variant: `I22D`
result: 2.6

query: Then this variant: `V6P`
result: 2.08

query: Another variant to look at: `E2T`
result: 2.78

query: Repeat for the following variant: `I22W`
result: 2.8

query: Another variant to look at: `V6Y`
result: 3.16

Taken from the supplement of paper PMC10567573.
